test system: MMP1 expression by SFs; test: 'MMP assay': MMP1 expression by 'complex trigger' activated synovial fibroblasts (MMP1 ELISA); format: cell-based, human; details: Homo sapiens, Fibroblast, RASFs, 48 hrs
Quick reference for EC50 among some compounds
property_measured: EC50

                             chemical_smiles  property_measured  value_measured
 0  NC(=O)c1cc(Nc2ncc(-c3cc(F)c(C(N)=O)c(F)c3)n3ccnc23)ccc1N1CCOCC1               EC50  501 to 1000 nM
 1  NC(=O)c1c(F)cc(-c2cnc(Nc3ccc(OCCN4CCOCC4)cc3)c3nccn23)cc1F               EC50       > 1000 nM
 2  O=C1NCc2cc(-c3cnc(Nc4ccccc4)c4nccn34)ccc21               EC50   101 to 500 nM
 3  NC(=O)c1ccc(-c2cnc(Nc3ccc(N4CCN(CCO)CC4)cc3)c3nccn23)cc1               EC50   101 to 500 nM
 4  NC(=O)c1cccc(Nc2ncc(-c3cn[nH]c3)n3ccnc23)c1               EC50       > 1000 nM
 5  c1cn2c(-c3nn[nH]n3)cnc(Nc3ccc(N4CCOCC4)cc3)c2n1               EC50       > 1000 nM
 6  CC(C)N1CCN(c2ccc(Nc3ncc(-c4cc(F)c5c(c4)CNC5=O)n4ccnc34)cc2)CC1               EC50       > 1000 nM
 7  O=c1cc(-c2cnc(Nc3ccc(N4CCOCC4)cc3)c3nccn23)cc(C(F)(F)F)[nH]1               EC50       > 1000 nM
 8  NC(=O)c1ccc(-c2cnc(Nc3ccc(N4CCOCC4)cc3)c3nccn23)cc1               EC50  501 to 1000 nM
 9  CN1CCN(c2ccc(Nc3ncc(-c4ccc(C(N)=O)cc4)n4ccnc34)cc2F)CC1               EC50   101 to 500 nM
10  CCN(CC)CCNC(=O)c1ccc(Nc2ncc(-c3ccsc3)n3ccnc23)cc1               EC50       > 1000 nM
11  Cc1[nH]ncc1-c1cnc(Nc2ccc(N3CCOCC3)cc2)c2nccn12               EC50       > 1000 nM
12  CCN(CC)CCNS(=O)(=O)c1ccc(Nc2ncc(-c3cn[nH]c3)n3ccnc23)cc1               EC50       > 1000 nM
13  O=C(NCCc1c[nH]c2ccccc12)c1ccc(Nc2ncc(-c3cn[nH]c3)n3ccnc23)cc1               EC50       > 1000 nM
14  C[C@@H]1CN(c2ccc(Nc3ncc(-c4cc(F)c(C(N)=O)c(F)c4)n4ccnc34)cc2)[C@@H](C)CN1C               EC50       > 1000 nM
15  NC(=O)c1ccc(-c2cnc(Nc3ccc(-n4cc(-c5ccccn5)nn4)cc3)c3nccn23)cc1               EC50     1 to 100 nM

----------
test system: TNFα release by human PBMCs; assay: Cytokine release by LPS-stimulated human PBMCs (TNFα ELISA); format: cell-based; conditions: PBMC, LPS 1 μg/mL, 24 hr
property_measured: EC50

>>> df
                            chemical_smiles  value_measured
0  C[C@@H]1CN(c2ccc(Nc3ncc(-c4cc(F)c(C(N)=O)c(F)c4)n4ccnc34)cc2)[C@@H](C)CN1C       > 1000 nM
1  O=C(c1ccc(Nc2ncc(-c3cn[nH]c3)n3ccnc23)cc1)N1CCOCC1       > 1000 nM
2  NC(=O)c1coc(-c2cnc(Nc3ccc(N4CCOCC4)cc3)c3nccn23)c1       > 1000 nM
3  CN1CCN(c2ccc(Nc3ncc(-c4ccc(C(N)=O)c(Cl)c4)n4ccnc34)cc2)CC1  501 to 1000 nM
